Ref: the supplement of paper PMC9170038

System: MS2 coat protein
Test Protocol: apparent KD of MS2 coat protein; designed switch direction (-1 OFF switch, 1 ON switch): 1; higher = weaker reporter binding
Experimental Context: input ligand: microRNA oligo, concentration not stated
Measured Property: apparent KD of MS2 coat protein (nM)

Entry Sequence	Measured Property	Measured Result
GUGCUCGUGUGAGGAUAUGCGGCCGGGUCGGCUGCAGAAGGUACUAUUAUACAUGAGGAUCACCCAUGUCGCUUUUCUCCGGUG [salish99_SSNG1_r04_919] (Eterna round: R96, puzzle: Same State NG 1)	apparent KD of MS2 coat protein	41.2
AGUAUUUAUGCAGGAUAUGAUUAACAUGAGGAUCACCCAUGUGGUGUUGUGAGUAAGGAGAGUGAUCAGAAGGGCAUUUUUUUU [JMF's solution 74] (Eterna round: R96, puzzle: Same State NG 2)	apparent KD of MS2 coat protein	324

====

Test system: MS2 coat protein
Test Protocol: apparent KD of MS2 coat protein; designed switch direction (-1 OFF switch, 1 ON switch): -1; higher = weaker reporter binding
Experimental Context: input ligand: none
# if value of apparent KD of MS2 coat protein reaches 0.03 µM, tag 1.0; if it stays below, tag 0.0

Entry Sequence	Class Name
GCCUUAUCCGUCAGGAUAUACAGCCGCUCCCUGUUGUAGAAGGGACAUGAGGAUCACCCAUGUACGUACCACCC [alecazam9] (Eterna round: R97, puzzle: Brourd's mod of Exclusion 4)	1.0
GGAGGUAUUUAGGAUAUGAUGUACGACGCAGGUUCAGAAGGGAGUACAUGAGGAUCACCCAUGUGGCCUCAUCC [Eternabot (L2) Solution 47] (Eterna round: R97, puzzle: Exclusion 6)	1.0
GCACUGCGAGGAUAUACAUGAGGAUCACCCAUGUGUCGGCAGCCACGGUAGCACGAGUGUAGAAGGCGCGUUAG [EX3 #45] (Eterna round: R97, puzzle: Exclusion 3)	1.0
AUGGCAAAGUUAGGAUAUGCAGUCUCCAAGACUGCAGAAGGAACGGUCCUCCUCCCUGAAACAUGAGGAUCACCCAUGUAAAGC [Eternabot solution 45] (Eterna round: R96, puzzle: Exclusion NG 1)	1.0
GUCAGCUCGUCAGGAUAUAUAUACAUGAGGAUCACCCAUGUAAGAUCAGGCUUCGGCCAAUGUAUAUAGAAGGGACGAGCUGAU [ENG2/11-B2] (Eterna round: R96, puzzle: Exclusion NG 2)	1.0
AAUAAUAAAGUCAGGAUAUCUAGAGCUGCGGCUCUAGAGAAGGGACAUGAGGAUCACCCAUGUCACUCAAUAAU [BmEx4/3-D3] (Eterna round: R97, puzzle: Brourd's mod of Exclusion 4)	0.0
AUUAAACAUGUAGGAUAUGCGUGGCGAAGCUAUGCAGAAGGACAUGAGGAUCACCCAUGUAAAAGCGUCUGCGUACAGAUGCAA [Mat - Exclusion NG 1 - Mod of JL - D84] (Eterna round: R96, puzzle: Exclusion NG 1)	1.0
CCGCUGCAAGGAUAUACUUGCGGUGGUGCUCGAGAUCUUUUACUUGAGGAUCACCCAAGUAGAAGGUGCAAAAC [jl-ex2.4.53 ViennaUCT mod] (Eterna round: R97, puzzle: Exclusion 2)	0.0
CCCGGGCCUGUGAGGAUAUGUUUGGGUAAACCCGGGCAGAAGGCACAUGAGGAUCACCCAUGUAAGGGUUUGGG [-29.6, -27.5 kcal, A 23%, 5bbis-5bbis] (Eterna round: R97, puzzle: Brourd's mod of Exclusion 4)	1.0
CGCACACAUGAGGAUCACCCAUGUGAGGAUAUCAUGCUUCGUAGUAAACUACGAAGUGUGAGAAGGCACAUGUU [Omei Ex1 D9] (Eterna round: R97, puzzle: Exclusion 1)	1.0
UUCGUGUAAGGAUAUACGACCCAUCCCAUUGGGAUGGGCACGUAGAAGGUACAUGAGGAUCACCCAUGUGCUCC [Ceacequa] (Eterna round: R96, puzzle: Exclusion 4)	1.0
GGAAGGCGAGGAUAUACAAUAAAGAAAGAGAAAGACGUGAGACAUGAGGAUCACCCAUGUAGAAGGUGCGGAGA [AK-MS2ROC-r4-exclusion2-13] (Eterna round: R97, puzzle: Exclusion 2)	1.0
ACAUGAGGAUCACCCAUGUGCACGUAAUGGCUCAUGUAGAGUGAGGAUAUGCGUGGCGAACGAGCGCAGAAGGCACAAGACUGG [Deportation 17 - Jieux - Exclusion NG 3] (Eterna round: R96, puzzle: Exclusion NG 3)	1.0
CGUCGAAAUGUAGGAUAUCUGCACGUUUAGUGCAGAGAAGGACAUGAGGAUCACCCAUGUAGAUCACGACGAAUUAAUUUAAUU [ENG1/5-C2] (Eterna round: R96, puzzle: Exclusion NG 1)	1.0
UCACCGCAAGGAUAUACUUGCGGUGAUGUUCGAAUCUUUCUACUUGAGGAUCACCCAAGUAGAAGGUGCGGUGA [jl-ex2.4.69 ViennaUCT mod] (Eterna round: R97, puzzle: Exclusion 2)	0.0
CGAUGCUCGAAUCCACAUGAGGAUCACCCAUGUCGAGUUAGCGAGGAUAUCGGAGACACAUAGUAUGAGAAGGCGCGAACCUGA [Ex NG3 #23] (Eterna round: R96, puzzle: Exclusion NG 3)	0.0
AACUCUGAGAAGGAUAUUCAGUGGGAAACGACAGAAGAAGGUUUCACAUGAGGAUCACCCAUGUCGAAUAGUGA [EX6 #75] (Eterna round: R97, puzzle: Exclusion 6)	1.0
